target: MAPK14 (human) (UniProt Q16539); assay: In vitro Inhibition of TNF-alpha Production in PBMC Cells
Sequence (Q16539 whole entry, looked up): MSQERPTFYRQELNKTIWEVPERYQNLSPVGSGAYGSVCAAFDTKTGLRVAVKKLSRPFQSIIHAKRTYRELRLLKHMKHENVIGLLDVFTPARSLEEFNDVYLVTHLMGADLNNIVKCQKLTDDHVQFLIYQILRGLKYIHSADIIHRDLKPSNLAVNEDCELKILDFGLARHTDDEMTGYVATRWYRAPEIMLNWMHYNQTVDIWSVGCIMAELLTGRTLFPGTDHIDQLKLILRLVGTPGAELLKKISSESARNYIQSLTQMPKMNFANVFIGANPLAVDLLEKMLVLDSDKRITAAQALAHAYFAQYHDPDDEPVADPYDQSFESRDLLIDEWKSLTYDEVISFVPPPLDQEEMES
pIC50: −log10 of the molar value.
outcomeMeasure: pIC50

* OCc1[nH]cc(-c2ccc(F)cc2)c1-c1ccncc1 | 7.00
* COC(=O)c1c(-c2cccc(F)c2)c(-c2ccncc2)c(N2CCNCC2)n1C | 7.16
* CNC(=O)c1c(-c2ccc(F)cc2)c(-c2ccncc2)c(N2CCNCC2)n1C | 6.97
* COC(=O)c1c(-c2ccc(F)cc2)c(-c2ccncc2)cn1CCO | 6.16
* Cn1cc(-c2ccc(F)cc2)c(-c2ccncc2)c1N1CCNCC1 | 7.82

a = CCN1C(=O)c2c(-c3ccncc3)c(-c3ccc(F)cc3)cn2C1=O
b = CN1CCN(c2c(-c3ccncc3)c(-c3ccc(F)cc3)c(C#N)n2C)CC1
c = COC(=O)c1c(-c2ccc(F)cc2)c(-c2ccncc2)c(NCCNC(C)=O)n1C
d = COC(=O)c1c(-c2ccc(F)cc2)c(-c2ccncc2)c(N2CCOCC2)n1C
Put the items in order so that reported pIC50 rises from first to last. # format: label list in the order the request specifies
c, a, b, d
